test system: DMPK; test: DMPK knockdown by transfected antisense oligonucleotides in DM1 C15 myotubes at 0.5 nM and 50 nM; assay type: cell-based; settings: 0.5 nM oligonucleotide, 72 hours, qPCR, relative to vehicle control
Catalogue of substances with associated Percent DMPK Reduction
Just the number in %, nothing appended.

substance: 310 (GCGUAGAAGGGCGUCUGCCC; chemistry not given here) [compound 310]
measurement target: DMPK
readout name: Percent DMPK Reduction
endpoint value: 39.53
//
substance: 357 (CCUCAGCCUCUGCCGCAGGG; chemistry not given here) [compound 357]
measurement target: DMPK
readout name: Percent DMPK Reduction
endpoint value: 10.87
//
substance: 289 (AUGACAAUCUCCGCCAGGUA; chemistry not given here) [compound 289]
measurement target: DMPK
readout name: Percent DMPK Reduction
endpoint value: 42.38

Lab note: next substance to report on.
Query: # assay system DMPK: give Percent DMPK Reduction of 282 (AAAGCGCCUCCGAUAGGCCA; chemistry not given here) [compound 282]
Response: 19.89

Origin of measurements: patent US20230144436A1
